Hello, the source for this data is patent US20170081400A1, in case you need it.

- Tgt: T1, human TL1A extracellular domain with N-terminal HIS and FLAG tag (human) (UniProt O95150)
- T1 sequence: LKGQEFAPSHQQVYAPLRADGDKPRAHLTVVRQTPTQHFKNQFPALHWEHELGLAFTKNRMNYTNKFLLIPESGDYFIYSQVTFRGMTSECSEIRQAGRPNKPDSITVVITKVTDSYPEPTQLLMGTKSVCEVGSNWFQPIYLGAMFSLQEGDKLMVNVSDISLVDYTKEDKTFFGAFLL
- Measurement description: cell-based or functional assay
Value kind: Fold improvement over 320-179, TL1A induced caspase potency assay in TF-1 cells (fold)
Give the value in fold but do not write fold after it.

Binder: 320-186 (antibody, human IgG1, name in Kabat numbering, V domains shown, human IgG1, lambda) VH: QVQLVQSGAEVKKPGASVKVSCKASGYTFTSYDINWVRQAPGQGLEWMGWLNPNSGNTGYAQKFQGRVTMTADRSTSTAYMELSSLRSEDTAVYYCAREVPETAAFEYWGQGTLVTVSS VL: QSVLTQPPSVSGAPGQRVTISCTSSSSDIGAGLGVHWYQQLPGTAPKLLIEGYYNRPSGVPDRFSGSKSGTSASLTITGLQPEDEGDYYCQSYDGTLSALFGGGTKLTVLG
Recorded value: 1

Challenge: Report Fold improvement over 320-179, TL1A induced caspase potency assay in TF-1 cells for 320-314 (antibody, human IgG1, name in Kabat numbering, V domains shown, human IgG1, lambda) VH: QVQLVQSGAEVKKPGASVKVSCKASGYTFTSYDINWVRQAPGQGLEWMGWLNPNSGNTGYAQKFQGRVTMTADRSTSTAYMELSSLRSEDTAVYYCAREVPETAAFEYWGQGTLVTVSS VL: QSVLTQPPSVSGAPGQRVTISCTSSSSDIGAGLGVHWYQQLPGTAPKLLIEGYYNRPSGVPDRFSGSKSGTSASLTITGLLPEDEGDYYCKSYDGTLSALFGGGTKLTVLG please.
Response given: 2
